system: S. aureus ATCC 13709; assay: MIC, NCCLS broth microdilution, S. aureus MSSA; format: cell-based, Staphylococcus aureus; details: S. aureus ATCC 13709, methicillin sensitive strain (MSSA)
propertyName: Minimum Inhibitory Concentration (MIC), organism D

INSERT INTO results (smiles, reportedvalue) VALUES
  ('COc1ccc2nc(-c3cc(NC(=O)c4cc(NC(=O)c5cc6ccccc6cn5)cn4C)cn3C)[nH]c2c1', '+++ (MIC ≦ 4 μg/mL)'),
  ('CC1CCN(CCCn2cc(NC(=O)c3ccc(Cl)cc3F)cc2C(=O)Nc2cc(-c3nc4cccnc4[nH]3)n(C)c2)CC1', '+++ (MIC ≦ 4 μg/mL)'),
  ('Cn1cc(NC(=O)c2cc(NC(=O)c3ccc(Cl)cc3F)cn2CCCN2CCOCC2)cc1-c1nc2cccnc2[nH]1', '+++ (MIC ≦ 4 μg/mL)'),
  ('CN(C)CCCn1cc(NC(=O)c2sc3ccccc3c2Cl)cc1C(=O)Nc1cc(-c2nc3ncccc3[nH]2)n(C)c1', '+++ (MIC ≦ 4 μg/mL)'),
  ('Cn1cc(NC(=O)c2cc(NC(=O)c3sccc3Cl)cn2CCC[n+]2ccccc2)cc1-c1nc2ncccc2[nH]1', '>32 µg/mL');

Ask: Query (compound): "Cn1cc(NC(=O)c2cc(NC(=O)c3sccc3Cl)cn2CCCO)cc1-c1nc2ccccc2[nH]1" ; field requested: Minimum Inhibitory Concentration (MIC), organism D
Result: +++ (MIC ≦ 4 μg/mL)

====

test system: C. albicans ATCC 38247; experiment: MIC, antifungal assay, C. albicans; type: cell-based, Candida albicans
propertyName: Minimum Inhibitory Concentration (MIC), organism B

INSERT INTO results (smiles, reportedvalue) VALUES
  ('Cn1cc(NC(=O)c2cc(NC(=O)c3ccc(Cl)cc3F)cn2CCCN2CCC(O)CC2)cc1-c1nc2cccnc2[nH]1', '+ (12 ≦ MIC ≦ 32 μg/mL)'),
  ('COc1cc(Cl)ccc1C(=O)Nc1cc(C(=O)Nc2cc(-c3nc4ccccc4[nH]3)n(C)c2)n(CCCN(C)C)c1', '+ (12 ≦ MIC ≦ 32 μg/mL)'),
  ('Cn1cc(NC(=O)c2cc3ccccc3cn2)cc1C(=O)Nc1cc(-c2nc3ccc(NC(=O)CCN4CCOCC4)cc3[nH]2)n(C)c1', '>32 µg/mL'),
  ('Cn1cc(NC(=O)c2cc3ccccc3cn2)cc1C(=O)Nc1cc(-c2nc3ccc(OC(=O)CCN4CCOCC4)cc3[nH]2)n(C)c1', '>32 µg/mL'),
  ('Cn1cc(NC(=O)c2cc(NC(=O)c3sccc3Cl)cn2CCCN2CCOCC2)cc1-c1nc2ccccc2[nH]1', '>32 µg/mL');

Ask: Query (compound): "Cn1cc(NC(=O)c2cc3ccccc3cn2)cc1C(=O)Nc1cc(-c2nc3ccc(Cl)cc3[nH]2)n(C)c1" ; field requested: Minimum Inhibitory Concentration (MIC), organism B
Result: >32 µg/mL

Ask: Try this compound next: "CN(C)CCCn1cc(NC(=O)c2ccc(F)cc2F)cc1C(=O)Nc1cc(-c2nc3ccncc3[nH]2)n(C)c1"
Result: >32 µg/mL

Ask: Try this compound next: "Cn1cc(NC(=O)c2cc(NC(=O)c3sc4ccccc4c3Cl)cn2CCCN2CCCCC2)cc1-c1nc2ccccc2[nH]1"
Result: + (12 ≦ MIC ≦ 32 μg/mL)

Ask: Try this compound next: "Cn1cc(NC(=O)c2cc(NC(=O)c3ccc(Cl)cc3F)cn2CCCN2CCOCC2)cc1-c1nc2ccccc2[nH]1"
Result: >32 µg/mL

====

tested on: B. cereus ATCC 11778; test: MIC, NCCLS broth microdilution, B. cereus; assay type: cell-based, Bacillus cereus
propertyName: Minimum Inhibitory Concentration (MIC), organism A

Observe how each entry below is paired with its result.
INSERT INTO results (smiles, reportedvalue) VALUES
  ('CN(C)CCCn1cc(NC(=O)c2sc3ccccc3c2Cl)cc1C(=O)Nc1cc(-c2nc3ncccc3[nH]2)n(C)c1', '+++ (MIC ≦ 4 μg/mL)'),
  ('COc1cc(Cl)ccc1C(=O)Nc1cc(C(=O)Nc2cc(-c3nc4ccccc4[nH]3)n(C)c2)n(CCCN(C)C)c1', '+++ (MIC ≦ 4 μg/mL)'),
  ('Cc1ccc2nc(-c3cc(NC(=O)c4cc(NC(=O)c5cc6ccccc6cn5)cn4C)cn3C)[nH]c2c1', '+++ (MIC ≦ 4 μg/mL)'),
  ('Cn1cc(NC(=O)c2cc(NC(=O)c3sccc3Cl)cn2CCCN(CCO)CCO)cc1-c1nc2ccccc2[nH]1', '+ (12 ≦ MIC ≦ 32 μg/mL)'),
  ('Cn1cc(NC(=O)c2cc(NC(=O)c3sccc3Cl)cn2CCCN2CCCCC2)cc1-c1nc2ccccc2[nH]1', '+++ (MIC ≦ 4 μg/mL)');

Ask: Query (compound): "Cn1cc(NC(=O)c2cc(NC(=O)c3sccc3Cl)cn2CCCN2CCSCC2)cc1-c1nc2ccccc2[nH]1" ; field requested: Minimum Inhibitory Concentration (MIC), organism A
Result: +++ (MIC ≦ 4 μg/mL)

Ask: Try this compound next: "CN(C)CCCn1cc(NC(=O)c2sc3ccccc3c2Cl)cc1C(=O)Nc1cc(-c2nc3ccncc3[nH]2)n(C)c1"
Result: +++ (MIC ≦ 4 μg/mL)

Ask: Try this compound next: "Cn1cc(NC(=O)c2cc(NC(=O)c3ccc(Cl)cc3F)cn2CCCN2CCOCC2)cc1-c1nc2ccccc2[nH]1"
Result: +++ (MIC ≦ 4 μg/mL)

Ask: Try this compound next: "CC1CCN(CCCn2cc(NC(=O)c3ccc(Cl)cc3F)cc2C(=O)Nc2cc(-c3nc4ccccc4[nH]3)n(C)c2)CC1"
Result: +++ (MIC ≦ 4 μg/mL)

Ask: Try this compound next: "CN(C)CCCn1cc(NC(=O)c2ccc(F)cc2F)cc1C(=O)Nc1cc(-c2nc3ncncc3[nH]2)n(C)c1"
Result: + (12 ≦ MIC ≦ 32 μg/mL)

Ask: Try this compound next: "CN(C)CCCn1cc(NC(=O)c2cc3ccccc3cn2)cc1C(=O)Nc1cc(-c2nc3ccccc3[nH]2)n(C)c1"
Result: +++ (MIC ≦ 4 μg/mL)

Ask: Try this compound next: "Cn1cc(NC(=O)c2cc(NC(=O)c3ccc(Cl)cc3F)cn2CCCN2CCSCC2)cc1-c1nc2ccccc2[nH]1"
Result: +++ (MIC ≦ 4 μg/mL)

Ask: Try this compound next: "CN(C)CCCn1cc(NC(=O)c2ccc(Cl)cc2F)cc1C(=O)Nc1cc(-c2nc3cccnc3[nH]2)n(C)c1"
Result: +++ (MIC ≦ 4 μg/mL)

====

test system: C. albicans ATCC 38247; assay: MIC, antifungal assay, C. albicans; format: cell-based, Candida albicans
propertyName: Minimum Inhibitory Concentration (MIC), organism B

INSERT INTO assay_data (smiles, reportedvalue) VALUES
  ('Cn1cc(NC(=O)c2cc(NC(=O)c3sccc3Cl)cn2CCCO)cc1-c1nc2ccccc2[nH]1', '>32 µg/mL'),
  ('Cn1cc(NC(=O)c2cc(NC(=O)c3ccc(Cl)cc3F)cn2CCCN2CCOCC2)cc1-c1nc2cccnc2[nH]1', '>32 µg/mL'),
  ('CN(C)CCCn1cc(NC(=O)c2sc3ccccc3c2Cl)cc1C(=O)Nc1cc(-c2nc3ccccc3[nH]2)n(C)c1', '+ (12 ≦ MIC ≦ 32 μg/mL)'),
  ('Cn1cc(NC(=O)c2cc(NC(=O)c3ccc(Cl)cc3F)cn2CCCN2CCC(F)(F)CC2)cc1-c1nc2ccccc2[nH]1', '>32 µg/mL'),
  ('Cn1cc(NC(=O)c2cc3ccccc3cn2)cc1C(=O)Nc1cc(-c2nc3cc(O)ccc3[nH]2)n(C)c1', '>32 µg/mL');

Okay, next one:
Ask: Query (compound): "Cn1cc(NC(=O)c2sccc2Cl)cc1C(=O)Nc1cc(-c2nc3ccccc3[nH]2)n(C)c1" ; field requested: Minimum Inhibitory Concentration (MIC), organism B
Result: + (12 ≦ MIC ≦ 32 μg/mL)

====

test system: C. albicans ATCC 38247; test: MIC, antifungal assay, C. albicans; type: cell-based, Candida albicans
propertyName: Minimum Inhibitory Concentration (MIC), organism B

INSERT INTO measurements (smiles, systemtested, reportedvalue) VALUES
  ('Cn1cc(NC(=O)c2cc(NC(=O)c3sccc3Cl)cn2CCCN2CCC(O)CC2)cc1-c1nc2ccccc2[nH]1', 'C. albicans ATCC 38247', '+ (12 ≦ MIC ≦ 32 μg/mL)'),
  ('Cc1cccc2nc(-c3cc(NC(=O)c4cc(NC(=O)c5cc6ccccc6cn5)cn4C)cn3C)[nH]c12', 'C. albicans ATCC 38247', '>32 µg/mL'),
  ('Cn1cc(NC(=O)c2cc(NC(=O)c3sc4ccccc4c3Cl)cn2CCCN2CCC(F)(F)CC2)cc1-c1nc2ccccc2[nH]1', 'C. albicans ATCC 38247', '>32 µg/mL'),
  ('CN(C)CCCn1cc(NC(=O)c2ccc(F)cc2F)cc1C(=O)Nc1cc(-c2nc3ccccc3[nH]2)n(C)c1', 'C. albicans ATCC 38247', '+ (12 ≦ MIC ≦ 32 μg/mL)');
